target.or.test.system: T1, Recombinant Human DLL4 (R&D Systems Cat#1506-D4/CF) (human, UniProt Q9NR61 27-524)
T1 construct: Bought recombinant protein; also called delta-like protein 4; Delta-like 4
test: ELISA, DLL4 coated on plate, Fab at 0.74 nM
Response key: 1 means ELISA signal >= 0.008; 0 means ELISA signal < 0.008.

Does ELISA signal meet or surpass 0.008 for Fab VH5-51_IGHD5-18*01>3_IGHJ4*01 G100K/G104T G24T/S28R/G35V (H:KT TRV) & V3-4_IGLJ1*01 (Fab, V domains shown, Fab expressed in E. coli; Plasmid A adds CH1 with His6 and Flag tags to the heavy chain; Plasmid E adds lambda CL to the light chain; also called H:KT TRV & L:wt; G100K/G104T G24T/S28R/G35V & parent) VH: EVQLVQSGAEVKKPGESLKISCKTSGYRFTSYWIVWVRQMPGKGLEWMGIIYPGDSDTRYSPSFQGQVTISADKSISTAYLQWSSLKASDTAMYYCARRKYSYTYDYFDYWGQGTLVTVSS VL: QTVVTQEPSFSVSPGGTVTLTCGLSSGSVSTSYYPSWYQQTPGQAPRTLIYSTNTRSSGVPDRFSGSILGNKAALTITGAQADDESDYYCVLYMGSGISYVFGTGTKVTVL ? 0

One more binder: Fab VH5-51_IGHD5-18*01>3_IGHJ4*01 G100K/G104T (H:KT) & V3-4_IGLJ1*01 M94R/S96M (L:RM) (Fab, V domains shown, Fab expressed in E. coli; Plasmid A adds CH1 with His6 and Flag tags to the heavy chain; Plasmid E adds lambda CL to the light chain; also called H:KT & L:RM; G100K/G104T & M94R/S96M) VH: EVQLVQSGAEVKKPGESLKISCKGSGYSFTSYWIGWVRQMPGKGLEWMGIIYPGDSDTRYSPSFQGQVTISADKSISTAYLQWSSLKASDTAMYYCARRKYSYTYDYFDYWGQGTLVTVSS VL: QTVVTQEPSFSVSPGGTVTLTCGLSSGSVSTSYYPSWYQQTPGQAPRTLIYSTNTRSSGVPDRFSGSILGNKAALTITGAQADDESDYYCVLYRGMGISYVFGTGTKVTVL 0

One more binder: Fab VH5-51_IGHD5-18*01>3_IGHJ4*01 G100K/G104T G24L/S28R/G35V (H:KT LRV) & V3-4_IGLJ1*01 (Fab, V domains shown, Fab expressed in E. coli; Plasmid A adds CH1 with His6 and Flag tags to the heavy chain; Plasmid E adds lambda CL to the light chain; also called H:KT LRV & L:wt; G100K/G104T G24L/S28R/G35V & parent) VH: EVQLVQSGAEVKKPGESLKISCKLSGYRFTSYWIVWVRQMPGKGLEWMGIIYPGDSDTRYSPSFQGQVTISADKSISTAYLQWSSLKASDTAMYYCARRKYSYTYDYFDYWGQGTLVTVSS VL: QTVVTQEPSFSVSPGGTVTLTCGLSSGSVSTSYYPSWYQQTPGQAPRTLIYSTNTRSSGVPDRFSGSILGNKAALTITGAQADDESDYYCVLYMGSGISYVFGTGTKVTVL 0

One more binder: Fab VH5-51_IGHD5-18*01>3_IGHJ4*01 G100K/G104T (H:KT) & V3-4_IGLJ1*01 (Fab, V domains shown, Fab expressed in E. coli; Plasmid A adds CH1 with His6 and Flag tags to the heavy chain; Plasmid E adds lambda CL to the light chain; also called H:KT & L:wt; KT double mutant) VH: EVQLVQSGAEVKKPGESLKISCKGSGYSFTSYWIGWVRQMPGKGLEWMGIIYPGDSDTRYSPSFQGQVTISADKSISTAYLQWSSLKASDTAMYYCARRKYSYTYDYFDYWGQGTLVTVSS VL: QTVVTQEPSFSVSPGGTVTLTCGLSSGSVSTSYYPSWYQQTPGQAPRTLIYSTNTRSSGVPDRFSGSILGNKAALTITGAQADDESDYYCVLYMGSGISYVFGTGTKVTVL 1

FYI, the data here is from patent US20120316071A1.
